Target: SARS-CoV-2 nsp13 (Severe acute respiratory syndrome coronavirus 2)
Test: SARS-CoV-2 nsp13 ATPase-associated activity assay
Type: biochemical
Details: given in brackets beside IC50 >30 μM; read-out: Percentage of enzymatic residual activity, ATPase
Cut-off 70% on remaining activity at 30 µM: below means satisfied, at or above means not satisfied.

Inquiry: Please let me know if CC(C)c1ccc(-n2cc(C(=O)/C=C(\O)C(=O)O)c3ccccc32)cc1 shows remaining activity at 30 µM below 70%.
Reply text: satisfied

Inquiry: Please let me know if O=C(O)/C(O)=C/C(=O)c1cn(-c2ccccc2)c2ccccc12 shows remaining activity at 30 µM below 70%.
Reply text: not satisfied

Inquiry: Please let me know if O=C(O)/C(O)=C/C(=O)c1cn(-c2ccc(F)cc2)c2ccccc12 shows remaining activity at 30 µM below 70%.
Reply text: not satisfied
